System: NCI/ADR-RES ovarian
assay_info: NCI-60 one-dose screen, 48 h
experimental_context: 10 µM
Compounds without any hit were thinned out: in the full panel of roughly 83,000, 20% have a hit. The source made the active and inactive calls. How the source made its calls: active means growth percent below 10; inactive means the rest.
Outcome field: choose from active, inactive

Worked examples, 4 compounds total:
Can you look up the reported call for CC(C)c1[nH]nc2c(NCc3ccc(-c4ccccn4)cc3)nc(SCCN)nc12 for me?
inactive

Can you look up the reported call for CCCCc1ccc(NC(=O)N(CCCl)N=O)cc1 for me?
inactive

Can you look up the reported call for COc1ccc2oc(=O)cc(C(c3ccc[nH]3)c3ccc[nH]3)c2c1 for me?
active

Can you look up the reported call for N=C(N)c1ccc(-c2ccc(-c3ccccc3)s2)s1 for me?
active

Now consider a different compound.
Can you look up the reported call for C=C[C@]1(C)C=C2C(=O)[C@@]3(O)OC(=O)[C@@]4(CCCC(C)(C)[C@H]34)[C@@]2(O)CC1 for me?
active
